Target System: PI3Kdelta (Homo sapiens (Human))
Sequence (O00329 whole entry, canonical isoform): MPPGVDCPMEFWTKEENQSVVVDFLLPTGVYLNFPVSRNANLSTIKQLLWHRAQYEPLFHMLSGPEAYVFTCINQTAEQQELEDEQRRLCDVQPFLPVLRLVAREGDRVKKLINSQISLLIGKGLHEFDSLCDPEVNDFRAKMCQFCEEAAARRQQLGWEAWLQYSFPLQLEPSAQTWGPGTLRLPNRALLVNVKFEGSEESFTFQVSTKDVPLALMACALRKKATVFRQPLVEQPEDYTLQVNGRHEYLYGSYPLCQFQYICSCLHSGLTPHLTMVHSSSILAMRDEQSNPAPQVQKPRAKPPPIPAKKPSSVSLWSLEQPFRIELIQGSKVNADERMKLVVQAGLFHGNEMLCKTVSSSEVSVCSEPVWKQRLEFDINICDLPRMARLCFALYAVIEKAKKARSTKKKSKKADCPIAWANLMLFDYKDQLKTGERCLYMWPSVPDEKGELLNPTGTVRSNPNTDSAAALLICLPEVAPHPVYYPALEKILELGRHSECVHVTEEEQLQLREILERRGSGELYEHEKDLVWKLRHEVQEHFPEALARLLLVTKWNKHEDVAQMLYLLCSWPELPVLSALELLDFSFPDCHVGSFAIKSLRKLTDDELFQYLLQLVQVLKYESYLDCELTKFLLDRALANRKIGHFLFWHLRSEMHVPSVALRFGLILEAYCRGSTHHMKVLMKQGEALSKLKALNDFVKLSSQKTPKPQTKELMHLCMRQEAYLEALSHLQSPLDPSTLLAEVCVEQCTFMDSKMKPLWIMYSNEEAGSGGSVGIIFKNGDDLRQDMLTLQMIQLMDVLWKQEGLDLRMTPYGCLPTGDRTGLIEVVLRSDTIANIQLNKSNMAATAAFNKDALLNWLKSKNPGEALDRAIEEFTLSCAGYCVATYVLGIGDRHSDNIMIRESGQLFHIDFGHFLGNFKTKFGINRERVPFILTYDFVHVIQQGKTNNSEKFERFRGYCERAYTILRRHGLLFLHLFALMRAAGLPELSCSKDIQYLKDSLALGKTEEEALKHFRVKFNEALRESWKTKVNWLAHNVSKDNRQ
Sequence (P27986 whole entry partner, canonical isoform): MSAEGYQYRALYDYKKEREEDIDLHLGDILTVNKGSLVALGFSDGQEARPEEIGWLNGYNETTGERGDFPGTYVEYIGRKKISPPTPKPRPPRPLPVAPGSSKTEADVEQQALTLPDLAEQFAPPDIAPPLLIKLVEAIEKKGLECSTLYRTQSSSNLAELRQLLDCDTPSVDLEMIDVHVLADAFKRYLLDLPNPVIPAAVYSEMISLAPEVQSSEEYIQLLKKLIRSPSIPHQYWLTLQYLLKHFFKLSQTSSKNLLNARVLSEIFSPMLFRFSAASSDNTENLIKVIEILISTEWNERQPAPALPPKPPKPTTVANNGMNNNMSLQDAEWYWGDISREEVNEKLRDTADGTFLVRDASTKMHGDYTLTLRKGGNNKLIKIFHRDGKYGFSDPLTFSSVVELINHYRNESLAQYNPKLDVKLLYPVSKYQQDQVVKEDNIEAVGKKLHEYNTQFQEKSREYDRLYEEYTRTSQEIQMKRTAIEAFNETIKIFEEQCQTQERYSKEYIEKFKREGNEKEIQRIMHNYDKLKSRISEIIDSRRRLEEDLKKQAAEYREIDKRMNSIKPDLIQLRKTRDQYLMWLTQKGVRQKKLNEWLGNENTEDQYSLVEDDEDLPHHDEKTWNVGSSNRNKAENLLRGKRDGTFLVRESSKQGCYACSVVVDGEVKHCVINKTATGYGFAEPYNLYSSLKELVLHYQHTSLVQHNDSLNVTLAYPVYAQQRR
Measurement Notes: HTRF PI3K biochemical assay, delta isoform
Test Parameters: 0.3 nM enzyme, 100 uM ATP, 5 uM PIP2, form screened: Neutral
Label scheme for IC50: low (below 10 nM), moderate (10 nM to below 40 nM), high (40 nM or more)

QUERY: Kindly identify the class of `CC[C@H](Nc1ncnc2c1nc(-c1cnc(C)nc1)n2CC)C(=O)N1C[C@@H](C)C(F)(F)[C@@H](C)C1` .
RESULT: low

QUERY: For this compound, which bin applies? CC[C@H](Nc1ncnc2c1nc(-c1cnc(C)nc1)n2CC)C(=O)N1CCOCC1CO (mixture of isomers)
RESULT: high

QUERY: // bin(item) where item = CC[C@H](Nc1ncnc2c1nc(-c1cnc(C)nc1)n2CC)C(=O)N1CCC(C)C1 (mixture of isomers)
RESULT: moderate

QUERY: Category of CCC(Nc1ncnc2c1nc(-c1cnn(CC)c1C)n2C)C(=O)N1CCC(F)(F)CC1 (racemic) , please.
RESULT: low

QUERY: Hey, which category is `CC[C@H](Nc1ncnc2c1nc(-c1cnc(C)nc1)n2CC)C(=O)N1CCS(=O)(=O)CC1` in, do you know?
RESULT: moderate

QUERY: Would you mind sorting `CC[C@H](Nc1ncnc2c1nc(-c1cnc(C)nc1)n2CC)C(=O)N1CCOC[C@@H]1C` into the appropriate category?
RESULT: moderate

QUERY: Which class holds `CCn1c(-c2cnc(C)nc2)nc2c(NCC3(C(=O)N4C[C@@H](C)O[C@@H](C)C4)CC3)ncnc21` ?
RESULT: moderate

QUERY: Exercise: read the entry `CCn1c(-c2cnc(C)nc2)nc2c(N[C@H](C(=O)N3C[C@@H](C)O[C@@H](C)C3)C(C)C)ncnc21` and state which class it falls under.
RESULT: low

QUERY: Band assignment needed for `CCn1c(-c2cnc(C)nc2)nc2c(N[C@H](C(=O)N3C[C@@H](C)O[C@@H](C)C3)C(C)(C)O)ncnc21` please.
RESULT: low

QUERY: Which bin should I file CCn1ncc(-c2nc3c(NC(C)C(=O)N4CCOCC4)ncnc3n2C)c1C (single isomer, unassigned) under?
RESULT: moderate

QUERY: Exam item: assign `CC[C@H](Nc1ncnc2c1nc(-c1cnc(C)nc1)n2CC)C(=O)N1CC2(CCCC2)C1` to the correct category.
RESULT: moderate

QUERY: Category of `CC[C@H](Nc1ncnc2c1nc(-c1cnc(C)nc1)n2CC)C(=O)N1C[C@@H]2C[C@H]1CO2` , please.
RESULT: moderate

QUERY: Classify this compound: `CC[C@H](Nc1ncnc2c1nc(-c1cnc(C)nc1)n2CC)C(=O)N1CC[C@@H](F)C1`
RESULT: high

QUERY: The entry to classify is `CCn1c(-c2cnc(C)nc2)nc2c(N[C@@H](CC(N)=O)C(=O)N3C[C@@H](C)O[C@@H](C)C3)ncnc21` ; which class holds it?
RESULT: high

QUERY: Categorize the following entry: `CCn1ncc(-c2nc3c(N[C@@H](Cc4ccccc4)C(=O)N4CCOCC4)ncnc3n2C)c1C`
RESULT: high
